Measured pKd by item
tested-target: human full-length VWF (human, UniProt P04275 764-2813)
assay-text: SPR, Biacore T200, antibody captured on Protein A, full-length VWF as analyte, single-cycle kinetics
Here pKd is given on a logarithmic scale as minus log10 of the concentration in mol/L.

binder="4-H3_H3_L0 (antibody, human IgG1, kappa, V domains shown, humanised, human IgG1 kappa) VH: QVQLVESGGGVVQPGRSLRLSCAASGIDLTSNAMNWVRQAPGKGLEWIGGIYGHDTSYYAAWAKGRFTISRDNSKNTVYLQMNSLRAEDTAVYYCARGFIYFDIWGQGTLVTVSS VL: DIQMTQSPSSLSASVGDRVTITCLASEDIASGISWYQQKPGKAPKLLIYGASNLESGVPSRFSGSGSGTDFTLTISSLQPEDFATYYCLGGYSFSSNGLTFGGGTKVEIKT" observable=pKd recorded_result=11.72
binder="1-D5_H1_VL-par (antibody, human IgG1, kappa, V domains shown, also called 1-D5_H1 (hIgG1)) VH: QVQLVESGGGVVQPGRSLRLSCAASGFSLNNYIMGWVRQAPGKGLEWVAIISTGGSTYYASWAKGRFTISRDNSKNTLYLQMNSLRAEDTAVYYCARGGSSAGAGFNIWGQGTLVTVSS VL: DIVMTQTPSSVSAAVGDTVTIQCQASQSINSGLAWYQQKPGQPPKRLIYKASTLASGVPSRFRGSGSGTDFTLTISDLECADAATYYCQSYHYISANGATFGGGTEVVVET" observable=pKd recorded_result=12.52

Exam item: // lookup pKd for 4-H3_H0_L1 rep (antibody, human IgG1, kappa, V domains shown, humanised, human IgG1 kappa) VH: QVQLVESGGGVVQPGRSLRLSCAASGFTFSSNAMNWVRQAPGKGLEWVAGIYGHDTSYYAAWAKGRFTISRDNSKNTLYLQMNSLRAEDTAVYYCARGFIYFDIWGQGTLVTVSS VL: DYQMTQSPSSLSASVGDRVTITCLASEDIASGISWYQQKPGKAPKLLIYGASNLESGVPSRFSGSGSGTDYTLTISSLQPEDFATYYCLGGYSFSSNGLTFGGGTKVEIKT
Marked response: 11.39
